system-tested: T1, human PD-1 protein (human, UniProt Q15116 25-167, limits assumed)
T1 construct: also called human PD-1 antigen
T1 sequence (Q15116 25-167 limits assumed): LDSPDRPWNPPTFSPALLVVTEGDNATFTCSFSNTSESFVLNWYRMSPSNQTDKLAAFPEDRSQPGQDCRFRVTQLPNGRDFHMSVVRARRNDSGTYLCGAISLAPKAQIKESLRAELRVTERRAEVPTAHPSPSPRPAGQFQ
protocol-notes: SPR, binding kinetics to human PD-1
Property: pKd; scope: individual binders
Remember the convention: pKd equals -log10 of concentration in molar.

Here's what some known entries look like.
AHF16559 (antibody, V domains shown) VH: QVQLVQSGAEVKKPGASVKVSCKASGYTFTGYWMHWVRQAPGQGLEWIGMIHPNSDTTVYNEKFKNRVTMTRDTSISTAYMELSRLRSDDTAVYYCAGTDQAAWHAFWGQGTTVTVSS VL: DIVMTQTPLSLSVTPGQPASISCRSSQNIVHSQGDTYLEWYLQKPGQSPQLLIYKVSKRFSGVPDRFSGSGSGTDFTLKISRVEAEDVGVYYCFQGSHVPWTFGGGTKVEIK	9.43
AHF16565 (antibody, V domains shown) VH: QVQLVQSGAEVKKPGASVKVSCKASGYTFTGYWMHWVRQAPGQGLEWIGMIHPNSDTTVYNWKFKNRVTMTRDTSISTAYMELSRLRSDDTAVYYCAGTDQEAWHGFWGQGTTVTVSS VL: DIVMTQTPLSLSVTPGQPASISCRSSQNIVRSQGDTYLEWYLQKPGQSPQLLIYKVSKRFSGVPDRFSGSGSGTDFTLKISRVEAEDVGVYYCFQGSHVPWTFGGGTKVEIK	9.04
AHF16561 (antibody, V domains shown) VH: QVQLVQSGAEVKKPGASVKVSCKASGYTFTGYWMHWVRQAPGQGLEWIGMIHPNSDTTIYNEKFKNRVTMTRDTSISTAYMELSRLRSDDTAVYYCAGTDQAAWAGFWGQGTTVTVSS VL: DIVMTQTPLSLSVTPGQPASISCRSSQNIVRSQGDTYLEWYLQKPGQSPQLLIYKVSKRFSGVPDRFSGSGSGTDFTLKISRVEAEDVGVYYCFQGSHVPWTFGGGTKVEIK	9.52

// pKd lookup, key: AHF16566 (antibody, V domains shown) VH: QVQLVQSGAEVKKPGASVKVSCKASGYTFTGYWMHWVRQAPGQGLEWIGMIHPNSDTTVYNWKFKNRVTMTRDTSISTAYMELSRLRSDDTAVYYCAGTDQAAWAAFWGQGTTVTVSS VL: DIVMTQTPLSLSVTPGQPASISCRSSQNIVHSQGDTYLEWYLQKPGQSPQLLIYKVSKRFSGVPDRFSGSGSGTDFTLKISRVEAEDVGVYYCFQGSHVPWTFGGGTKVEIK 9.46
